Assign MFI at 50 nM to each entry below.
biological target: PD-1 (Homo sapiens (Human)) (UniProt Q15116); experiment: flow cytometry, Jurkat/PD-1 cells
Sequence (Q15116 21-288 limits assumed): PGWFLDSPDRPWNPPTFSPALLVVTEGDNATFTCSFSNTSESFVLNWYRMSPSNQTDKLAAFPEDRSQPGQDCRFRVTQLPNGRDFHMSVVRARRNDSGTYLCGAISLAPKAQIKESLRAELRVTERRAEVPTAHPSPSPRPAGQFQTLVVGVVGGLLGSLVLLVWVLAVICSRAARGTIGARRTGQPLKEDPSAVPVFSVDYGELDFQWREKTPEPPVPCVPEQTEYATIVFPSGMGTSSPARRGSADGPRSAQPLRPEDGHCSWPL
Please give only the number in your answer, with no unit.

**Query** Supply MFI at 50 nM value. Item: variant PD-L2 IgV-Fc I13V, H15Q, R76G, I85F (Fc fusion, not shown: a dimerising Fc or GST; small tags and cut ends) LFTVTVPKELYIVEQGSNVTLECNFDTGSHVNLGAITASLQKVENDTSPHRERATLLEEQLPLGKASFHIPQVQVGDEGQYQCIFIYGVAWDYKYLTLK
**Result** 4740

**Query** Supply MFI at 50 nM value. Item: variant PD-L2 IgV-Fc H15Q, N32D, S67L, V89D (Fc fusion, not shown: a dimerising Fc or GST; small tags and cut ends) LFTVTVPKELYIIEQGSNVTLECNFDTGSHVDLGAITASLQKVENDTSPHRERATLLEEQLPLGKALFHIPQVQVRDEGQYQCIIIYGDAWDYKYLTLK
**Result** 25900

**Query** Supply MFI at 50 nM value. Item: variant PD-L2 IgV-Fc H15Q, Q72H, Q74R, R76G, I86T (Fc fusion, not shown: a dimerising Fc or GST; small tags and cut ends) FTVTVPKELYIIEQGSNVTLECNFDTGSHVNLGAITASLQKVENDTSPHRERATLLEEQLPLGKASFHIPHVRVGDEGQYQCIITYGVAWDYKYLTLK
**Result** 4050

**Query** Supply MFI at 50 nM value. Item: variant PD-L2 IgV-Fc I13V, H15Q, T47A, Q72H, R76G (Fc fusion, not shown: a dimerising Fc or GST; small tags and cut ends) LFTVTVPKELYIVEQGSNVTLECNFDTGSHVNLGAITASLQKVENDASPHRERATLLEEQLPLGKASFHIPHVQVGDEGQYQCIIIYGVAWDYKYLTLK
**Result** 73400
